Below, each of the binders is paired with its reported % inhibition of 14C-serotonin release (SRA), HIT-Positive Patient #2 serum, scFv 50 µg/mL value.
Target: T1, PF4/heparin complex (human PF4 complexed with heparin) (human, UniProt P02776 32-101)
T1 sequence: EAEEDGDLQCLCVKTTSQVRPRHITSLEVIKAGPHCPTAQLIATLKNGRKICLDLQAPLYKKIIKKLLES
Test: cell-based or functional assay
Please reply with the bare figure in % and do not write the unit itself.

Recorded results for 3 binders are shown here.
Wildtype scFv (KKO-derived single chain variable fragment) (scFv, VL-(G4S)3 linker-VH; expressed in E. coli BL21 from pADL-22c, purified on Ni-NTA as histidine-tagged scFv, about 28 kDa; also called WT; KKO-scFv; not shown: histidine tag from the pADL-22c vector) scFv: DIQMIQSQKFMSTSVGDRVTVTCKASQNVGTNVAWYQQKPGQSPNALIYSASYRYSGVPDRFTGSGSGTDFTLTITNVQSEDLADYFCQQYNSYPLTFGTGTKLDLKGGGGSGGGGSGGGGSVQLQQSGAELVKPGASVKLSCKASGYTFTNYFIYWVKQRPGQGLEWIGEINPRNGDTDFNEKFESRATLTVDKSSSTAYMQLSSLTSEDSAIYYCTRSPYGNNYGFTYWGQGTLVTVSA ... 37.2
Mutant C scFv, scFv(S50N, Y53H) (scFv, VL-linker-VH; histidine-tagged, from E. coli BL21; also called Mut C; not shown: histidine tag from the pADL-22c vector) scFv: DIQMIQSQKFMSTSVGDRVTVTCKASQNVGTNVAWYQQKPGQSPNALIYNASHRYSGVPDRFTGSGSGTDFTLTITNVQSEDLADYFCQQYNSYPLTFGTGTKLDLKGGGGSGGGGSGGGGSVQLQQSGAELVKPGASVKLSCKASGYTFTNYFIYWVKQRPGQGLEWIGEINPRNGDTDFNEKFESRATLTVDKSSSTAYMQLSSLTSEDSAIYYCTRSPYGNNYGFTYWGQGTLVTVSA ... 15.4
Mutant B scFv, scFv(R18K, N152K, D180N) (scFv, VL-linker-VH; histidine-tagged, from E. coli BL21; also called Mut B; not shown: histidine tag from the pADL-22c vector) scFv: DIQMIQSQKFMSTSVGDKVTVTCKASQNVGTNVAWYQQKPGQSPNALIYSASYRYSGVPDRFTGSGSGTDFTLTITNVQSEDLADYFCQQYNSYPLTFGTGTKLDLKGGGGSGGGGSGGGGSVQLQQSGAELVKPGASVKLSCKASGYTFTKYFIYWVKQRPGQGLEWIGEINPRNGDTNFNEKFESRATLTVDKSSSTAYMQLSSLTSEDSAIYYCTRSPYGNNYGFTYWGQGTLVTVSA ... 71.8

Could you share which % inhibition of 14C-serotonin release (SRA), HIT-Positive Patient #2 serum, scFv 50 µg/mL value was measured for Mutant F scFv, scFv(E183V, E186K, G223R) (scFv, VL-linker-VH; histidine-tagged, from E. coli BL21; also called Mut F; not shown: histidine tag from the pADL-22c vector) scFv: DIQMIQSQKFMSTSVGDRVTVTCKASQNVGTNVAWYQQKPGQSPNALIYSASYRYSGVPDRFTGSGSGTDFTLTITNVQSEDLADYFCQQYNSYPLTFGTGTKLDLKGGGGSGGGGSGGGGSVQLQQSGAELVKPGASVKLSCKASGYTFTNYFIYWVKQRPGQGLEWIGEINPRNGDTDFNVKFKSRATLTVDKSSSTAYMQLSSLTSEDSAIYYCTRSPYRNNYGFTYWGQGTLVTVSA ?
21.8

Could you share which % inhibition of 14C-serotonin release (SRA), HIT-Positive Patient #2 serum, scFv 50 µg/mL value was measured for Mutant D scFv, scFv(Y156H) (scFv, VL-linker-VH; histidine-tagged, from E. coli BL21; also called Mut D; not shown: histidine tag from the pADL-22c vector) scFv: DIQMIQSQKFMSTSVGDRVTVTCKASQNVGTNVAWYQQKPGQSPNALIYSASYRYSGVPDRFTGSGSGTDFTLTITNVQSEDLADYFCQQYNSYPLTFGTGTKLDLKGGGGSGGGGSGGGGSVQLQQSGAELVKPGASVKLSCKASGYTFTNYFIHWVKQRPGQGLEWIGEINPRNGDTDFNEKFESRATLTVDKSSSTAYMQLSSLTSEDSAIYYCTRSPYGNNYGFTYWGQGTLVTVSA ?
12.8

Could you share which % inhibition of 14C-serotonin release (SRA), HIT-Positive Patient #2 serum, scFv 50 µg/mL value was measured for Mutant E scFv, scFv(Y156H, D180G, Q233P) (scFv, VL-linker-VH; histidine-tagged, from E. coli BL21; also called Mut E; not shown: histidine tag from the pADL-22c vector) scFv: DIQMIQSQKFMSTSVGDRVTVTCKASQNVGTNVAWYQQKPGQSPNALIYSASYRYSGVPDRFTGSGSGTDFTLTITNVQSEDLADYFCQQYNSYPLTFGTGTKLDLKGGGGSGGGGSGGGGSVQLQQSGAELVKPGASVKLSCKASGYTFTNYFIHWVKQRPGQGLEWIGEINPKNGDTGFNEKFESRATLTVDKSSSTAYMQLSSLTSEDSAIYYCTRSPYGNNYGFTYWGPGTLVTVSA ?
9

Source of measurements: patent US20250011413A1
